System: HepG2 cells
Assay: HepG2 cell viability assay (CCK-8)
Format: cell-based, human
Settings: Homo sapiens, HepG2, 72 h
IC50 values, listed per item

| compound | testedSystem | IC50 |
| --- | --- | --- |
| CCc1cnc(NC(=O)[C@@H](C)c2cccc(-c3cnc(NC(=O)/C=C/CN4CCOCC4)c(C#N)c3)c2)s1 [Example 135] | HepG2 cells | 10 nM |
| C[C@H](C(=O)Nc1ncc(C(F)(F)F)s1)c1cccc(-c2cnc(NC(=O)/C=C/CN3CCOCC3)cn2)c1 [Example 92] | HepG2 cells | 74 nM |
| C[C@H](C(=O)Nc1ncc(C(F)(F)F)s1)c1cccc(-c2cnc(NC(=O)/C=C/CN(C)C)c(Cl)c2)c1 [Example 113] | HepG2 cells | 4.2 nM |
| C[C@H](C(=O)Nc1ncc(C(F)(F)F)s1)c1cccc(-c2cnc(NC(=O)/C=C/CN(C)C)cn2)c1 [Example 81] | HepG2 cells | 11 nM |
